# Protocol text: Time taken for maximum plasma concentration for the compound in solution form (formulation) was determined in rats at peroral dose of 5 mg/kg
# Format: ADME, organism-based
# Set-up: dose 5 mg/kg, route oral
# Measurement conditions: rat, po
Experimental endpoint: Tmax (h)
The answer is to be given in h; state only the numeric part.

Please fill in: Tmax reported for O=c1c2c(oc(O)c1C(c1ccccc1)C1CC1)CCCCCC2 (stereo unspecified) = 3.7

----------
# Protocol text: Time taken for maximum plasma concentration for the compound in suspension form (formulation) was determined in rats at peroral dose of 5 mg/kg
# Type: ADME, organism-based
# Design: dose 5 mg/kg, route oral
# Measurement conditions: rat, po
Experimental endpoint: Tmax (h)
Provide the reading as a plain figure in h.

get_value(item= O=c1c2c(oc(O)c1C(c1ccccc1)C1CC1)CCCCCC2 (stereo unspecified) , readout=Tmax) returns 6
